target: UniProt Q81258; assay: HCV NS3 protease time-resolved fluorescence (TRF) assay, genotype 3a; assay type: biochemical; details: Ki 3a
Listed molecules paired with reported Ki
measurement type: Ki (nM)

INSERT INTO assay_data (input_smiles, measurement_type, assay_value) VALUES
  ('C=C[C@@H]1C[C@]1(NC(=O)[C@@H]1C[C@@H]2CN1C(=O)[C@H](C(C)(C)C)NC(=O)O[C@@H]1C[C@H]1CCCCCc1c(nc3ccccc3c1OCCCN1CCCC1=O)O2)C(=O)NS(=O)(=O)C1(C)CC1', 'Ki', 0.89),
  ('C=C[C@@H]1C[C@]1(NC(=O)[C@@H]1C[C@@H]2CN1C(=O)[C@H](C(C)(C)C)NC(=O)O[C@@H]1C[C@H]1CCCCCc1c(nc3c(F)cccc3c1OCCN1CCOCC1)O2)C(=O)NS(=O)(=O)C1(C)CC1', 'Ki', 7.7);

====

Listed compounds paired with reported Ki
molecular target: HCV NS3 protease genotype 3a (3A-1) (Hepatitis C virus genotype 3a, UniProt Q81258); test: HCV NS3 protease time-resolved fluorescence (TRF) assay, genotype 3a; type: biochemical; conditions: Ki 3a
measurement type: Ki

INSERT INTO results (compound, assay_value) VALUES
  ('C=C[C@@H]1C[C@]1(NC(=O)[C@@H]1C[C@@H]2CN1C(=O)[C@H](C(C)(C)C)NC(=O)O[C@@H]1C[C@H]1CCCCCc1c(nc3c(OC)cccc3c1OCCCn1ccnc1)O2)C(=O)NS(=O)(=O)C1(C)CC1 [Example 144]', '6.2 nM'),
  ('C=C[C@@H]1C[C@]1(NC(=O)[C@@H]1C[C@@H]2CN1C(=O)[C@H](C(C)(C)C)NC(=O)O[C@@H]1C[C@H]1CCCCCc1c(nc3cc(C(F)(F)F)ccc3c1OCCN1CCOCC1)O2)C(=O)NS(=O)(=O)C1(C)CC1 [Example 129]', '8.7 nM'),
  ('C=C[C@@H]1C[C@]1(NC(=O)[C@@H]1C[C@@H]2CN1C(=O)[C@H](C1(C)CCCCC1)NC(=O)O[C@@H]1C[C@H]1CCCCCc1c(nc3ccccc3c1OCCCN1CCCOCC1)O2)C(=O)NS(=O)(=O)C1(C)CC1 [Example 270]', '1.4 nM'),
  ('C=C[C@@H]1C[C@]1(NC(=O)[C@@H]1C[C@@H]2CN1C(=O)[C@H](C(C)(C)C)NC(=O)O[C@@H]1C[C@H]1CCCCCc1c(nc3ccccc3c1OCCN1CCOCC1)O2)C(=O)NS(=O)(=O)C1(C)CC1 [Example 113]', '1.6 nM');

====

molecular target: HCV NS3 protease genotype 3a (3A-1) (Hepatitis C virus genotype 3a, UniProt Q81258); assay: HCV NS3 protease time-resolved fluorescence (TRF) assay, genotype 3a; assay type: biochemical; settings: Ki 3a
Ki vs 2 nM: less than gives T; not less than gives F.

INSERT INTO results (compound, group) VALUES
  ('C=C[C@@H]1C[C@]1(NC(=O)[C@@H]1C[C@@H]2CN1C(=O)[C@H](C1CCCC1)NC(=O)O[C@@H]1CCC[C@H]1CC/C=C/Cc1c(nc3ccccc3c1OCCCOC(=O)CN(C)C)O2)C(=O)NS(=O)(=O)C1CC1', 'T'),
  ('C=C[C@@H]1C[C@]1(NC(=O)[C@@H]1C[C@@H]2CN1C(=O)[C@H](C(C)(C)C)NC(=O)O[C@@H]1C[C@H]1CCCCCc1c(nc3cc(C)ccc3c1OCCCNC)O2)C(=O)NS(=O)(=O)C1(C)CC1', 'T'),
  ('C=C[C@@H]1C[C@]1(NC(=O)[C@@H]1C[C@@H]2CN1C(=O)[C@H](C1CCCC1)NC(=O)O[C@@H]1CCC[C@H]1CC/C=C/Cc1c(nc3ccccc3c1OCCCOP(=O)(O)O)O2)C(=O)NS(=O)(=O)C1CC1', 'T'),
  ('C=C[C@@H]1C[C@]1(NC(=O)[C@@H]1C[C@@H]2CN1C(=O)[C@H](C(C)(C)C)NC(=O)O[C@@H]1C[C@H]1CCCCCc1c(nc3ccccc3c1OCCCNC1CCCc3ccccc31)O2)C(=O)NS(=O)(=O)C1(C)CC1 (stereo partly drawn)', 'F'),
  ('C=C[C@@H]1C[C@]1(NC(=O)[C@@H]1C[C@@H]2CN1C(=O)[C@H](C(C)(C)C)NC(=O)O[C@@H]1C[C@H]1CCCCCc1c(nc3c(F)cccc3c1OCCN1CCC1)O2)C(=O)NS(=O)(=O)C1(C)CC1', 'T'),
  ('CC1(S(=O)(=O)NC(=O)[C@@]23C[C@H]2/C=C\CCCCC[C@@H]2NC(=O)O[C@@H]4C[C@H]4CCC/C=C/c4c(nc5ccccc5c4OCCN4CCCC4)O[C@@H]4C[C@@H](C(=O)N3)N(C4)C2=O)CC1', 'F'),
  ('C=C[C@@H]1C[C@]1(NC(=O)[C@@H]1C[C@@H]2CN1C(=O)[C@H](C(C)(C)C)NC(=O)O[C@@H]1CCC[C@H]1CC/C=C\Cc1c(nc3ccccc3c1OC)O2)C(=O)NS(=O)(=O)C1CC1', 'F'),
  ('C=C[C@@H]1C[C@]1(NC(=O)[C@@H]1C[C@@H]2CN1C(=O)[C@H](C1CCCC1)NC(=O)N1CC[C@@H](C1)OCCC/C=C/Cc1c(nc3ccccc3c1OCC)O2)C(=O)NS(=O)(=O)C1CC1', 'F');

All values here come from patent US9328138B2.
